measurement-target: 11-beta-hydroxysteroid dehydrogenase 1 (Homo sapiens)
Sequence (P28845 whole entry): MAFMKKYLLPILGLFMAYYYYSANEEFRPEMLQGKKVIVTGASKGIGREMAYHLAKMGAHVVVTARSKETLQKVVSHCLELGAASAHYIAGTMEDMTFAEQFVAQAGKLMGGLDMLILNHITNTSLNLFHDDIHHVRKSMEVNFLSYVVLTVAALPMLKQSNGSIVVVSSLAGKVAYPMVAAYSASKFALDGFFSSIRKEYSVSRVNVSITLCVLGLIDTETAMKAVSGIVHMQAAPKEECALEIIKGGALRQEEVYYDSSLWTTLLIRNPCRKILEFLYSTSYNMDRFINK
protocol-details: Inhibition of human 11beta-HSD1 expressed in CHOK1 cells using XL665-labeled cortisol as substrate measured after 24 hrs by HTRF assay
Assay type: cell-based, CHO-K1
property: IC50 (nM)
Reply numerically in nM, unit not repeated.

For the molecule CC1CN(CC(=O)NC2C3CC4CC2CC(C(N)=O)(C4)C3)S(=O)(=O)N(c2c(Cl)cc(C(F)(F)F)cc2Cl)C1 (stereo unspecified) , give its reported IC50. 1

----------
protocol-details: Ratio of drug concentration in brain to plasma of mouse at 10 mg/kg, ip administered as single dose measured at 3 hrs
Assay type: ADME, organism-based
assay-setup: read-out: BPR
property: Kp at 3 h

For the compound CC1CN(CC(=O)NC2C3CC4CC2CC(C(N)=O)(C4)C3)S(=O)(=O)N(c2c(Cl)cc(C(F)(F)F)cc2Cl)C1 (stereo unspecified) , give its reported Kp at 3 h. 0.53
